# Tested on: HAP1 MTAP-deleted cell line
# Method description: SDMA in-cell western assay, HAP1 MTAP-deleted
# Type: cell-based
# Test conditions: Homo sapiens, HAP1, SDMA in-cell western, HAP1 MTAP-deleted; read-out: HAP1 MTAP deleted IC50
Value type: IC50

// below: answered molecules
Molecule: Cc1cc(NC(=O)C(=O)N2C[C@@H](C)CC[C@@H]2c2cccc(Cl)c2)cnc1N (single isomer, unassigned) [Compound 284]
IC50: < 100 nM

Molecule: Cc1ncc(NC(=O)C(=O)N2C[C@H](C)CC[C@H]2c2ccc3c(c2)CCC(=O)N3)cc1C(F)F (racemic) [Compound 803]
IC50: < 100 nM

Molecule: CCc1cc(NC(=O)C(=O)N2C[C@@H](C)CC[C@@H]2c2ccc3sc(-c4cccnc4)nc3c2)cnc1N [Compound 1200]
IC50: < 100 nM

Molecule: CC(=O)N1CCCC([C@@H]2CC[C@@H](C)CN2C(=O)C(=O)Nc2cnc(N)c(C)c2)C1 (mixture of isomers) [Compound 757]
IC50: 100 to 1000 nM

Molecule: CCc1cc(NC(=O)C(=O)N2C[C@@H](C)CC[C@@H]2c2cccc(OC[C@@H]3CCN(C)C3)c2)cnc1N [Compound 1178]
IC50: < 100 nM

Molecule: C[C@@H]1CC[C@@H](c2ccc(-c3nccs3)cc2)N(C(=O)C(=O)Nc2cncc(C(N)=O)c2)C1 (single isomer, unassigned) [Compound 783]
IC50: < 100 nM

Query molecule follows.
INPUT: Could you share which IC50 value was measured for Cc1cc(NC(=O)C(=O)N2CCCC[C@H]2C2CCCC2)cnc1N (single isomer, unassigned) [Compound 340] ?
OUTPUT: 100 to 1000 nM

* * *

# Tested on: HAP1 MTAP-intact cell line
# Method description: SDMA in-cell western assay, HAP1 MTAP-intact
# Type: cell-based
# Test conditions: Homo sapiens, HAP1, SDMA in-cell western, HAP1 MTAP-intact; read-out: MTAP HAP1 intact IC50
We begin with a simple list: items and their reported IC50.

Compound: Cc1cc([C@@H]2CC[C@@H](C)CN2C(=O)C(=O)Nc2cncc(C(N)=O)c2)ccc1OC1CCOC1 (mixture of isomers)
IC50: > 1000 nM
--
Compound: Cc1cc(NC(=O)C(=O)N2C[C@H](C)CC[C@H]2c2ccc3nn(C)cc3c2)cnc1N (single isomer, unassigned)
IC50: 100 to 1000 nM
--
Compound: Cc1cc(NC(=O)C(=O)N2CCCCC2c2cccc3scnc23)cnc1N (centres unmarked)
IC50: > 1000 nM
--
Compound: Cc1cc(NC(=O)C(=O)N2C[C@@H](C)C(F)(F)C[C@@H]2c2ccc(F)cc2)cnc1N (single isomer, unassigned)
IC50: 100 to 1000 nM
--
Compound: Cc1cncc(NC(=O)C(=O)N2C[C@H](C)CC[C@H]2c2ccc3c(c2)CCCC3)c1 (racemic)
IC50: > 1000 nM

INPUT: Name the recorded IC50 for Cc1ccc([C@H]2CC[C@H](C)CN2C(=O)C(=O)Nc2cncc(C(N)=O)c2)cc1Cl (single isomer, unassigned) .
OUTPUT: > 1000 nM

INPUT: Using the record for C[C@@H]1[C@@H](C)CC[C@H](c2ccccc2)N1C(=O)C(=O)Nc1cncc(C(N)=O)c1 (single isomer, unassigned) , report its IC50.
OUTPUT: > 1000 nM

INPUT: Which IC50 reading was recorded for the compound NC(=O)c1cncc(NC(=O)C(=O)N2C[C@@H](CC(F)(F)F)CC[C@H]2c2ccccc2)c1 (racemic) ?
OUTPUT: > 1000 nM

INPUT: Consider the compound shown here: `NC(=O)c1cncc(NC(=O)C(=O)N2CCC3(CC2)CCS(=O)(=O)CC3)c1` What is its recorded IC50?
OUTPUT: > 1000 nM

INPUT: Which IC50 reading was recorded for the compound `Cc1ncc(NC(=O)C(=O)N2C[C@@H](C)CC[C@@H]2c2ccc3sc(C4CCN(C)CC4)nc3c2)cc1C1COC1` ?
OUTPUT: < 100 nM

INPUT: What value of measured IC50 is listed for COc1ncc(NC(=O)C(=O)N2CCCCC2C2CCCC2)cc1C(N)=O (single isomer, unassigned) ?
OUTPUT: > 1000 nM

INPUT: May I ask what IC50 has been recorded for Cc1cc(NC(=O)C(=O)N2C[C@H](C)CC[C@H]2c2ccc(-c3nccs3)cn2)cnc1N (racemic) ?
OUTPUT: > 1000 nM

INPUT: State the recorded IC50 for this entry: Cc1cc(NC(=O)C(=O)N2CCCC[C@@H]2c2ccncc2)cnc1N (single isomer, unassigned)
OUTPUT: > 1000 nM

INPUT: Look at this compound and give its reported IC50. C[C@@H]1CC[C@@H](c2cccc(C#N)c2)N(C(=O)C(=O)Nc2cncc(C(N)=O)c2)C1 (racemic)
OUTPUT: > 1000 nM

* * *

# Tested target: PRMT5 (Homo sapiens, UniProt O14744)
# Construct: purchased Viva (custom protein)
# Sequence (O14744 whole entry): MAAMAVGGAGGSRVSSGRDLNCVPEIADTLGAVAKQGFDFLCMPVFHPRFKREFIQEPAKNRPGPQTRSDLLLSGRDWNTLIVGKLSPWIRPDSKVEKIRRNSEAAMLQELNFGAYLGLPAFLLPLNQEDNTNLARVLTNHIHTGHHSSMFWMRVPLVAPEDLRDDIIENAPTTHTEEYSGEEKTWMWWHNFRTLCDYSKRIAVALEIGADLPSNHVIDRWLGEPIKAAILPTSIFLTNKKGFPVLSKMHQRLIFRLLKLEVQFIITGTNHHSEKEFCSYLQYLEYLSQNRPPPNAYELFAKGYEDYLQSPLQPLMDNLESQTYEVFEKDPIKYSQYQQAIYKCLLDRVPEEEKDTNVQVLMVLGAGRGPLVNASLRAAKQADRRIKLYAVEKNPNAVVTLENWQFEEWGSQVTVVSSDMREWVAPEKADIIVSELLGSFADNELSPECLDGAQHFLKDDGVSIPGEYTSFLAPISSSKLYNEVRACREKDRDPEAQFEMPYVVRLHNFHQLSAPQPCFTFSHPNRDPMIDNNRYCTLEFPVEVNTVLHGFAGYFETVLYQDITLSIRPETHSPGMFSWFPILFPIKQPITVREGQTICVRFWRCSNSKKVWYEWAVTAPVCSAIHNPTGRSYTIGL
# Sequence (Q9BQA1 whole entry partner): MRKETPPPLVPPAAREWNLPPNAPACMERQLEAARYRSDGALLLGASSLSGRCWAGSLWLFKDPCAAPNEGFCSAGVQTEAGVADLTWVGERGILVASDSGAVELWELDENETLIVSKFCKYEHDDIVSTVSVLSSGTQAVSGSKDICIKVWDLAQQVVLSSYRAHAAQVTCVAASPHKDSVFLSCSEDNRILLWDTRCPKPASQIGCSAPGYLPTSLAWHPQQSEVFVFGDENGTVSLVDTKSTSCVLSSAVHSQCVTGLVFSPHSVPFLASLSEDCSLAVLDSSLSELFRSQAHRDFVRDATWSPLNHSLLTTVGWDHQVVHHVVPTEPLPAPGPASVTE
# Method description: PRMT5 biochemical IC50 assay with MTA as cofactor
# Test conditions: PRMT5, MTA as cofactor; read-out: MTA IC50
pIC50: −log10 of the molar value.
Value type: pIC50

Compound: CCc1cc(NC(=O)C(=O)N2C[C@@H](C)CC[C@@H]2c2ccc3sc([C@H]4CCN(C)C(C)(C)C4)nc3c2)cnc1N (single isomer, unassigned) [Compound 1397]
Obs value: > 7.30
--
Compound: CC1(C)CCC(c2ccccc2)N(C(=O)C(=O)Nc2cncc(C(N)=O)c2)C1 (stereo not shown)
Obs value: 6.30 to 7.30
--
Compound: Cc1cc([C@@H]2CC[C@@H](C)CN2C(=O)C(=O)Nc2cncc(C(N)=O)c2)ccc1O (single isomer, unassigned)
Obs value: > 7.30
--
Compound: C[C@@H]1C[C@@H](F)[C@@H](c2ccc(F)cc2)N(C(=O)C(=O)Nc2cncc(C(N)=O)c2)C1 (racemic)
Obs value: 6.30 to 7.30

INPUT: Reported pIC50, compound Cc1cc(NC(=O)C(=O)N2C[C@@H](C)CC[C@@H]2c2cc[nH]n2)cnc1N (single isomer, unassigned) : ____
OUTPUT: > 7.30

INPUT: # lookup: pIC50 of O=Cc1cncc(NC(=O)C(=O)N2CCCCC2c2ccccc2)c1 (stereo not shown)
OUTPUT: 6.30 to 7.30

INPUT: For C[C@H]1CC[C@H](c2cc(F)cc(Cl)c2)N(C(=O)C(=O)Nc2cncc(C(N)=O)c2)C1 (single isomer, unassigned) , what is its reported pIC50?
OUTPUT: > 7.30

INPUT: Which value of pIC50 has been reported for `CCN1CCC(c2nc3cc([C@H]4CC[C@H](C)CN4C(=O)C(=O)Nc4cnc(OC)c(C(N)=O)c4)ccc3s2)CC1` in the records?
OUTPUT: > 7.30

INPUT: Using the record for Cc1cc(NC(=O)C(=O)N2C[C@@H](C)C(F)(F)C[C@@H]2c2ccc(F)c(F)c2)cnc1N (single isomer, unassigned) , report its pIC50.
OUTPUT: > 7.30

INPUT: Dear colleague, I am looking for the recorded pIC50 of the following compound: CCc1cc(NC(=O)C(=O)N2CC(C)CCC2c2ccc3sc(C4CCN(C)CC4C)nc3c2)cnc1N (racemic) [Compound 1131]
OUTPUT: > 7.30

INPUT: Which value of pIC50 has been reported for Cc1cc(NC(=O)C(=O)N2C[C@@H](C)CC[C@@H]2c2cc(Cl)cc(C(F)(F)F)c2)cnc1N (single isomer, unassigned) in the records?
OUTPUT: > 7.30

INPUT: Record request: pIC50 value, item CC(=O)N[C@H]1C[C@H]([C@@H]2CC[C@H](C)CN2C(=O)C(=O)Nc2cnc(N)c(C)c2)C1 (single isomer, unassigned)
OUTPUT: < 6.30

INPUT: Param item = CCc1cc(NC(=O)C(=O)N2C[C@@H](C)CC[C@@H]2c2ccc3sc([C@H]4CCN(C)C4)nc3c2)cnc1N (single isomer, unassigned) ; retrieve measured pIC50.
OUTPUT: > 7.30

* * *

Parameter: IC50. Scope: all listed entries.
# Tested target: PRMT5 (Homo sapiens)
# Construct: purchased Viva (custom protein)
# Method description: PRMT5 biochemical IC50 assay with SAM as cofactor
# Test conditions: PRMT5, SAM as cofactor; read-out: SAM IC50

Molecule: Cc1cc(NC(=O)C(=O)N2C[C@H](C)[C@@H](OC(C)C)C[C@H]2c2ccccc2)cnc1N (single isomer, unassigned)
IC50: 50 to 500 nM

INPUT: Consider the molecule shown here: C[C@H]1CC[C@H](c2ccc(C(N)=O)s2)N(C(=O)C(=O)Nc2cncc(C(N)=O)c2)C1 (single isomer, unassigned) What is its recorded IC50?
OUTPUT: > 500 nM

INPUT: Looking for the measured IC50 of Cc1cc(NC(=O)C(=O)N2C[C@H](C)CC[C@H]2c2cccc(C(F)(F)F)c2)cnc1N (single isomer, unassigned) , can you help?
OUTPUT: 50 to 500 nM
